- procedure_details: Phase I/IIa Group A: pharmacokinetics in healthy subjects
- Format: in vivo, human
- protocol_conditions: human, plasma, oral, 50 mg, healthy subjects, 50 mg single dose, fed, PK Day 1, mean ± SD
readout_name: half-life
Express the reported value numerically, then name its unit.

## Task Which value of half-life has been reported for COC(=O)N[C@H](C(=O)N1CCC[C@H]1c1nc2cc(-c3csc4c(-c5ccc(-c6cnc([C@@H]7CCCN7C(=O)[C@H](NC(=O)OC)c7ccccc7)[nH]6)cc5)csc34)ccc2[nH]1)C(C)C in the records?
## Result 23 h

====

- procedure_details: Phase I/IIa Group A: pharmacokinetics in healthy subjects
- Type: in vivo, human
- protocol_conditions: human, plasma, oral, 100 mg, healthy subjects, 100 mg single dose, fasted, PK Day 1, mean ± SD; read-out: AUC0-inf
readout_name: AUC(0-inf) (ng·h/mL)
Quick reminder: number only, in ng·h/mL, skip the unit.

## Task Which value of AUC(0-inf) has been reported for COC(=O)N[C@H](C(=O)N1CCC[C@H]1c1nc2cc(-c3csc4c(-c5ccc(-c6cnc([C@@H]7CCCN7C(=O)[C@H](NC(=O)OC)c7ccccc7)[nH]6)cc5)csc34)ccc2[nH]1)C(C)C in the records?
## Result 1290

====

- procedure_details: Phase I/IIa Group A: pharmacokinetics in healthy subjects
- Type: in vivo, human
- protocol_conditions: human, plasma, oral, 100 mg, healthy subjects, 100 mg QD x 7 days, fasted, PK Day 7, median (min-max)
readout_name: Tmax (h)
Quick reminder: number only, in h, skip the unit.

## Task Which value of Tmax has been reported for COC(=O)N[C@H](C(=O)N1CCC[C@H]1c1nc2cc(-c3csc4c(-c5ccc(-c6cnc([C@@H]7CCCN7C(=O)[C@H](NC(=O)OC)c7ccccc7)[nH]6)cc5)csc34)ccc2[nH]1)C(C)C in the records?
## Result 3.5

====

- procedure_details: clinical
- protocol_conditions: human, in vivo, 50 mg, Cmax
- Description: The phase I/IIa study was designed to evaluate safety and tolerability, pharmacokinetics (PK), food effect, and antiviral activity with regard to the Compound. The key safety parameters that were evaluated in the trial include adverse events (AEs), physical examination, vital signs, 12-lead electrocardiogram (ECG), and standard safety laboratory tests. The key antiviral activity parameters that were evaluated in the trial include changes in plasma HCV RNA and emergence of resistance mutations. […]
readout_name: Cmax (µg/mL)
Quick reminder: number only, in µg/mL, skip the unit.

## Task Which value of Cmax has been reported for COC(=O)N[C@H](C(=O)N1CCC[C@H]1c1nc2cc(-c3csc4c(-c5ccc(-c6cnc([C@@H]7CCCN7C(=O)[C@H](NC(=O)OC)c7ccccc7)[nH]6)cc5)csc34)ccc2[nH]1)C(C)C [the Compound] in the records?
## Result 0.032

====

- procedure_details: Phase I/IIa Group A: pharmacokinetics in healthy subjects
- Format: in vivo, human
- protocol_conditions: human, plasma, oral, 50 mg, healthy subjects, 50 mg single dose, fed, PK Day 1, median (min-max)
readout_name: Tmax (h)
Quick reminder: number only, in h, skip the unit.

## Task Which value of Tmax has been reported for COC(=O)N[C@H](C(=O)N1CCC[C@H]1c1nc2cc(-c3csc4c(-c5ccc(-c6cnc([C@@H]7CCCN7C(=O)[C@H](NC(=O)OC)c7ccccc7)[nH]6)cc5)csc34)ccc2[nH]1)C(C)C [the Compound] in the records?
## Result 6

====

- procedure_details: clinical
- protocol_conditions: human, in vivo, 100 mg
readout_name: Cmax (ng/mL)
Quick reminder: number only, in ng/mL, skip the unit.

## Task Which value of Cmax has been reported for COC(=O)N[C@H](C(=O)N1CCC[C@H]1c1nc2cc(-c3csc4c(-c5ccc(-c6cnc([C@@H]7CCCN7C(=O)[C@H](NC(=O)OC)c7ccccc7)[nH]6)cc5)csc34)ccc2[nH]1)C(C)C in the records?
## Result 95

====

- procedure_details: Phase I/IIa Group A: pharmacokinetics in healthy subjects
- Format: in vivo, human
- protocol_conditions: human, plasma, oral, 50 mg, healthy subjects, 50 mg single dose, fasted, PK Day 1, mean ± SD; read-out: AUC0-inf
readout_name: AUC(0-inf) (ng·h/mL)
Quick reminder: number only, in ng·h/mL, skip the unit.

## Task Which value of AUC(0-inf) has been reported for COC(=O)N[C@H](C(=O)N1CCC[C@H]1c1nc2cc(-c3csc4c(-c5ccc(-c6cnc([C@@H]7CCCN7C(=O)[C@H](NC(=O)OC)c7ccccc7)[nH]6)cc5)csc34)ccc2[nH]1)C(C)C in the records?
## Result 952

====

- procedure_details: Phase I/IIa Group A: pharmacokinetics in healthy subjects
- Type: in vivo, human
- protocol_conditions: human, plasma, oral, 50 mg, healthy subjects, 50 mg single dose, fasted, PK Day 1, mean ± SD
readout_name: Cmax
Express the reported value numerically, then name its unit.

## Task Which value of Cmax has been reported for COC(=O)N[C@H](C(=O)N1CCC[C@H]1c1nc2cc(-c3csc4c(-c5ccc(-c6cnc([C@@H]7CCCN7C(=O)[C@H](NC(=O)OC)c7ccccc7)[nH]6)cc5)csc34)ccc2[nH]1)C(C)C in the records?
## Result 50.9 ng/mL

====

- procedure_details: Phase I/IIa Group A: pharmacokinetics in healthy subjects
- Assay type: in vivo, human
- protocol_conditions: human, plasma, oral, 5 mg, healthy subjects, 5 mg single dose, fasted, PK Day 1, mean ± SD; read-out: AUC0-inf
readout_name: AUC(0-inf) (ng·h/mL)
Quick reminder: number only, in ng·h/mL, skip the unit.

## Task Which value of AUC(0-inf) has been reported for COC(=O)N[C@H](C(=O)N1CCC[C@H]1c1nc2cc(-c3csc4c(-c5ccc(-c6cnc([C@@H]7CCCN7C(=O)[C@H](NC(=O)OC)c7ccccc7)[nH]6)cc5)csc34)ccc2[nH]1)C(C)C in the records?
## Result 110

====

- procedure_details: clinical
- protocol_conditions: human, in vivo, 25 mg
readout_name: Cmax

## Task Which value of Cmax has been reported for COC(=O)N[C@H](C(=O)N1CCC[C@H]1c1nc2cc(-c3csc4c(-c5ccc(-c6cnc([C@@H]7CCCN7C(=O)[C@H](NC(=O)OC)c7ccccc7)[nH]6)cc5)csc34)ccc2[nH]1)C(C)C in the records?
## Result 13.8 ng/mL

====

- procedure_details: clinical
- protocol_conditions: human, in vivo, 25 mg
readout_name: Tmax (h)
Quick reminder: number only, in h, skip the unit.

## Task Which value of Tmax has been reported for COC(=O)N[C@H](C(=O)N1CCC[C@H]1c1nc2cc(-c3csc4c(-c5ccc(-c6cnc([C@@H]7CCCN7C(=O)[C@H](NC(=O)OC)c7ccccc7)[nH]6)cc5)csc34)ccc2[nH]1)C(C)C in the records?
## Result 3.5

====

- procedure_details: clinical
- protocol_conditions: human, in vivo, 50 mg, AUC0-12
readout_name: AUC(0-t) (ng·h/mL)
Quick reminder: number only, in ng·h/mL, skip the unit.

## Task Which value of AUC(0-t) has been reported for COC(=O)N[C@H](C(=O)N1CCC[C@H]1c1nc2cc(-c3csc4c(-c5ccc(-c6cnc([C@@H]7CCCN7C(=O)[C@H](NC(=O)OC)c7ccccc7)[nH]6)cc5)csc34)ccc2[nH]1)C(C)C in the records?
## Result 260

====

- procedure_details: Phase I/IIa Group A: pharmacokinetics in healthy subjects
- Format: in vivo, human
- protocol_conditions: human, plasma, oral, 10 mg, healthy subjects, 10 mg single dose, fasted, PK Day 1, mean ± SD
readout_name: Cmax (ng/mL)
Quick reminder: number only, in ng/mL, skip the unit.

## Task Which value of Cmax has been reported for COC(=O)N[C@H](C(=O)N1CCC[C@H]1c1nc2cc(-c3csc4c(-c5ccc(-c6cnc([C@@H]7CCCN7C(=O)[C@H](NC(=O)OC)c7ccccc7)[nH]6)cc5)csc34)ccc2[nH]1)C(C)C in the records?
## Result 11.5

====

- procedure_details: clinical
- protocol_conditions: human, in vivo, 50 mg, t1/2
- Protocol: The phase I/IIa study was designed to evaluate safety and tolerability, pharmacokinetics (PK), food effect, and antiviral activity with regard to the Compound. The key safety parameters that were evaluated in the trial include adverse events (AEs), physical examination, vital signs, 12-lead electrocardiogram (ECG), and standard safety laboratory tests. The key antiviral activity parameters that were evaluated in the trial include changes in plasma HCV RNA and emergence of resistance mutations. […]
readout_name: half-life (h)
Quick reminder: number only, in h, skip the unit.

## Task Which value of half-life has been reported for COC(=O)N[C@H](C(=O)N1CCC[C@H]1c1nc2cc(-c3csc4c(-c5ccc(-c6cnc([C@@H]7CCCN7C(=O)[C@H](NC(=O)OC)c7ccccc7)[nH]6)cc5)csc34)ccc2[nH]1)C(C)C in the records?
## Result 23

Numbers sourced from patent US20150224085A1.
